assay: DRUGMATRIX: Calcium Channel Type L, Benzothiazepine radioligand binding (ligand: [3H] Diltiazem); format: cell membranes, Rattus norvegicus, Wistar, Brain, Membrane; details: Not Active = under 50% inhibition at 10 µM
Where a SMILES comes first, the peptide text is derived from it. Bridges are numbered along the chain shown (N, C = ends). [ ]: non-standard residue; d: D form. The star is where a group is joined. Threoninol(2S,3R) = C[C@@H](O)[C@H](CO)N*

compound	IC50
CCN[C@@H]1C[C@H](N)[C@@H](O[C@H]2OC(CN)=CC[C@H]2N)[C@H](O)[C@H]1O[C@H]1OC[C@](C)(O)[C@H](NC)[C@H]1O	Not Active
CCn1cc(C(=O)O)c(=O)c2cc(F)c(N3CCN(C)CC3)cc21	Not Active
C[C@@H](O)[C@H](CO)NC(=O)[C@@H]1CSSC[C@H](NC(=O)[C@H](N)Cc2ccccc2)C(=O)N[C@@H](Cc2ccccc2)C(=O)N[C@H](Cc2c[nH]c3ccccc23)C(=O)N[C@@H](CCCCN)C(=O)N[C@@H]([C@@H](C)O)C(=O)N1 (H-[dF]CF[dW]KTC-{Threoninol(2S,3R)}; disulfide 2-7)	Not Active
C[C@H]1C[C@H]2[C@@H]3CCC4=CC(=O)C=C[C@]4(C)[C@@]3(Cl)[C@@H](O)C[C@]2(C)[C@@]1(O)C(=O)CO	Not Active
COc1ccccc1C(=O)N1CCC(Cc2ccccc2)CC1	Not Active
CC(=O)Nc1cccc(O)c1	Not Active
COc1cccc2c1C(=O)c1c(O)c3c(c(O)c1C2=O)C[C@@](O)(C(=O)CO)C[C@@H]3O[C@H]1C[C@H](N)[C@H](O)[C@H](C)O1	Not Active
C=C1CC[C@H](O)C/C1=C/C=C1\CCC[C@]2(C)[C@@H]([C@H](C)CCCC(C)C)CC[C@@H]12	Not Active
O=C(C1CCCCC1)N1CC(=O)N2CCc3ccccc3C2C1 (stereo unspecified)	Not Active
CN(C)/N=N/c1[nH]cnc1C(N)=O	Not Active
CC(=O)CC(c1ccccc1)c1c(O)c2ccccc2oc1=O (stereo unspecified)	Not Active
O=C1CC2(CCCC2)CC(=O)N1CCCCN1CCN(c2ncccn2)CC1	Not Active
Oc1ccc(OCc2ccccc2)cc1	Not Active
NC(=O)NO [HYDROXYUREA]	Not Active
C[C@@H]1C[C@@H]([C@H](O)CC2CC(=O)NC(=O)C2)C(=O)[C@@H](C)C1 [CYCLOHEXIMIDE]	Not Active
CCN(CC)CCOC(=O)c1ccc(N)cc1	Not Active

###

experiment: DRUGMATRIX: Calcium Channel Type L, Benzothiazepine radioligand binding (ligand: [3H] Diltiazem); assay type: cell membranes, Rattus norvegicus, Wistar, Brain, Membrane; conditions: Not Active = under 50% inhibition at 10 µM
measure: IC50

compound	reading
C[C@@]12C(=O)OC(=O)[C@]1(C)[C@H]1CC[C@@H]2O1	Not Active
Cc1onc(-c2ccccc2)c1-c1ccc(S(N)(=O)=O)cc1	Not Active
CC(C)(C(=O)c1cccnc1)c1cccnc1	Not Active
COc1ccc2[nH]c([S+]([O-])Cc3ncc(C)c(OC)c3C)nc2c1 (configuration not stated)	Not Active
CC(=O)Nc1c(I)c(NC(C)=O)c(I)c(C(=O)O)c1I	Not Active
COc1ccc2c(c1)[C@]13CCCC[C@@H]1[C@H](C2)N(C)CC3	Not Active
Nc1ccn([C@@H]2CS[C@H](CO)O2)c(=O)n1	Not Active
COc1cc2c(c3oc(=O)c4c(c13)CCC4=O)[C@@H]1C=CO[C@@H]1O2	Not Active
C[N+](C)(C)CCO.[Cl-] [CHOLINE CHLORIDE]	Not Active
ClC(Cl)Cl [CHLOROFORM]	Not Active
Cc1nccn1CC1CCc2c(c3ccccc3n2C)C1=O (configuration not stated)	Not Active
CN1C(C(=O)Nc2ccccn2)=C(O)c2sccc2S1(=O)=O	Not Active
C[C@@H](N)[C@H]1CC[C@H](C(=O)Nc2ccncc2)CC1	Not Active
CC(C)[C@H]1CC[C@H](C(=O)N[C@H](Cc2ccccc2)C(=O)O)CC1 [NATEGLINIDE]	Not Active
CCOC(=O)C(C)(C)Oc1ccc(Cl)cc1 [CLOFIBRATE]	Not Active
COc1ccc2c(c1)c(CC(=O)O)c(C)n2C(=O)c1ccc(Cl)cc1	Not Active
N=C(Nc1ccccc1)Nc1ccccc1	Not Active
O=C1CCC(N2C(=O)c3ccccc3C2=O)C(=O)N1 (configuration not stated) [THALIDOMIDE]	Not Active
CC(=O)Nc1ccc(O)cc1	Not Active
C[C@](O)(CS(=O)(=O)c1ccc(F)cc1)C(=O)Nc1ccc(C#N)c(C(F)(F)F)c1 [(R)-BICALUTAMIDE]	Not Active
CC1=C(CC(=O)O)c2cc(F)ccc2/C1=C\c1ccc([S+](C)[O-])cc1 (configuration not stated)	Not Active
Cc1cccc(Nc2ccncc2S(=O)(=O)NC(=O)NC(C)C)c1 [TORSEMIDE]	Not Active
CNC(=C[N+](=O)[O-])NCCSCc1ccc(CN(C)C)o1	Not Active
CCCN(CCC)C(=O)C(CCC(=O)O)NC(=O)c1ccccc1 (configuration not stated) [PROGLUMIDE]	Not Active
Cc1ccc(S(=O)(=O)NC(=O)NN2CC3CCCC3C2)cc1 (configuration not stated) [GLICLAZIDE]	Not Active
CCC1=C[C@@H]2CN(C1)Cc1c([nH]c3ccccc13)[C@@](C(=O)OC)(c1cc3c(cc1OC)N(C)[C@H]1[C@@](O)(C(=O)OC)[C@H](OC(C)=O)[C@]4(CC)C=CCN5CC[C@]31[C@@H]54)C2	Not Active
N[C@H](CSC(=S)NCc1ccccc1)C(=O)O	Not Active
C[C@]12CC[C@@H]3c4ccc(OC(=O)c5ccccc5)cc4CC[C@H]3[C@@H]1CC[C@@H]2O [ESTRADIOL BENZOATE]	Not Active
CC[C@]1(O)C[C@@H]2CN(CCc3c([nH]c4ccccc34)[C@@](C(=O)OC)(c3cc4c(cc3OC)N(C)[C@H]3[C@@](O)(C(=O)OC)[C@H](OC(C)=O)[C@]5(CC)C=CCN6CC[C@]43[C@@H]65)C2)C1	Not Active
[Cl-].[Cl-].[Zn+2] [ZINC CHLORIDE]	Not Active
O=C(N[C@H](CO)[C@H](O)c1ccc([N+](=O)[O-])cc1)C(Cl)Cl	Not Active
Cc1cc(=O)n(-c2ccccc2)n1C [ANTIPYRINE]	Not Active
CC1(C)O[C@@H]2C[C@H]3[C@@H]4C[C@H](F)C5=CC(=O)CC[C@]5(C)[C@H]4[C@@H](O)C[C@]3(C)[C@]2(C(=O)CO)O1 [FLURANDRENOLIDE]	Not Active
O=S(=O)([O-])CCS.[Na+]	Not Active
CC(=O)OCC(=O)[C@@]1(O)CC[C@H]2[C@@H]3CCC4=CC(=O)CC[C@]4(C)[C@H]3C(=O)C[C@@]21C [CORTISONE ACETATE]	Not Active
COc1cc(NS(=O)(=O)c2ccc(N)cc2)nc(OC)n1	Not Active
O=C1CC[C@H](N2C(=O)c3ccccc3C2=O)C(=O)N1	Not Active

###

target: Cytochrome P450 2D6 (Homo sapiens, UniProt P10635); note: in other assays of this panel Not Active means under 50% inhibition at 10 µM
Sequence (P10635 whole entry): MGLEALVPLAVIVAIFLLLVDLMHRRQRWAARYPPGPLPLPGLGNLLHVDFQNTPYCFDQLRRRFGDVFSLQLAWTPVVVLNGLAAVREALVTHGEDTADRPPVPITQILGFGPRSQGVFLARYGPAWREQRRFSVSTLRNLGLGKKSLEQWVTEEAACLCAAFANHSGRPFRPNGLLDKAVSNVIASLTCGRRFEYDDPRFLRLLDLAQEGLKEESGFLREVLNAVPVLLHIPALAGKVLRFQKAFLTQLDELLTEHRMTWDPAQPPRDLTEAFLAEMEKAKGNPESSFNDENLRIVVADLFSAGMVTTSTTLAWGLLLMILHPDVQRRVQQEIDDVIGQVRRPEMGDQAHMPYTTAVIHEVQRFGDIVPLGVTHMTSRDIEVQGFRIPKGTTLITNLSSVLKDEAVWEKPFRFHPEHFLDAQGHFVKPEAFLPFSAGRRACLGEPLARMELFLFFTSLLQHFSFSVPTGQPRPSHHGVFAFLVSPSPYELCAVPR
pIC50: −log10 of the molar value.
Assign Yes to entries whose pIC50 meets or exceeds 6; assign No to the rest.

> print(dat)
                                   compound  classname
1  CCN1CC(CCN2CCOCC2)C(c2ccccc2)(c2ccccc2)C1=O (stereo unspecified)        Yes
2  OC(CCN1CCCCC1)(c1ccccc1)C1CCCCC1 (stereo unspecified)         No
3      Clc1ccc2c(c1)C(N1CCNCC1)=Nc1ccccc1O2         No
4  CCCCN1CCCCC1C(=O)Nc1c(C)cccc1C.Cl (stereo unspecified) [BUPIVACAINE HYDROCHLORIDE]        Yes
5                   N=C(Nc1ccccc1)Nc1ccccc1         No

###

target: Glycine receptor (Rattus norvegicus, UniProt P22771+P24524+P07727+P20781); type: cell membranes, Wistar, Spinal cord, Membrane; note: in other assays of this panel Not Active means under 50% inhibition at 10 µM
measure: IC50

> print(dat)
                                   molecule     reading
1             NC(=O)c1cnccn1 [PYRAZINAMIDE]  Not Active
2  COc1cc2c(c3oc(=O)c4c(c13)CCC4=O)[C@@H]1C=CO[C@@H]1O2  Not Active
3  O=C(c1ccc(OCCN2CCCCC2)cc1)c1c(-c2ccc(O)cc2)sc2cc(O)ccc12  Not Active
4  CC(C)c1nc(CN(C)C(=O)N[C@H](C(=O)N[C@@H](Cc2ccccc2)C[C@H](O)[C@H](Cc2ccccc2)NC(=O)OCc2cncs2)C(C)C)cs1  Not Active
